- protocol: qHTS Multiplex Assay to Identify Dual Action Probes in a Cell Model of Huntington: Cytoprotection confirmation (ATP)
- conditions: PC12 HttQ103 induced, ATP luminescence 40 h; series mostly up to 46.1 µM
Results filed as inconclusive are left out. The source made the active and inactive calls. Calls follow the shape of the dose curve; as a rule, active = well fitted activation curve with a large enough effect; inconclusive = small, poorly fitted or top-dose-only effect; inactive = no such curve, though single readings can be large or run the other way.
Pick from t = active, f = inactive when you respond.

input: Tell me the assay call for O=C(Nc1cccnc1)Nc1ccccc1Cl please.
output: f

input: Try the molecule COc1ccc(-c2[nH]ncc2-c2ccc3c(c2)OCCO3)c(O)c1
output: f

input: # repeat for CCc1nc(SCC(=O)Nc2nc3c(s2)CCCC3)c2ccccc2n1
output: f

input: Lookup Cn1nnnc1Sc1ncnc2scc(-c3ccc(N)cc3)c12
output: f

input: Next molecule up: O=C(NCN1C(=O)C2C3C=CC(C3)C2C1=O)Nc1ccccn1 (centres undefined)
output: f

input: Then what about the molecule O=C(Nc1ccccc1)C1=C(O)CC(c2ccco2)CC1=Nc1ccccc1 (centres undefined) ?
output: f

input: Further, for CC(C(=O)O)c1ccc(N2Cc3ccccc3C2=O)cc1 (centres undefined) ?
output: f

input: // query: Cn1nnnc1Sc1ncnc2scc(-c3ccccc3C#N)c12
output: t

input: What about COc1ccc2cc3cc(C(=O)N4CCN(c5ccccc5)CC4)oc3nc2c1 ?
output: f

input: Moving on to the next molecule: O=Nc1c(-c2c(O)[nH]c3ccccc23)[nH]c2ccccc12
output: f

input: Same for CC(=O)Oc1cccc(C(=O)O)c1OC(C)=O
output: f

input: Repeat for the following molecule: CN1C(=O)C2(c3ccccc31)C1CCCC=C1C(C#N)=C(N)C2(C#N)C#N (centres undefined)
output: f

input: Check O=c1oc2cc(O)ccc2s1 too.
output: f

input: Also Cn1nnnc1Sc1ncnc2scc(-c3cccc(C#N)c3)c12 , if possible.
output: t

input: Another: Cc1ccccc1N=C(N)Nc1ccccc1C
output: f

input: Same thing, different molecule: Cn1nnnc1Sc1ncnc2scc(-c3ccccc3Br)c12
output: t

input: Follow-up entry: O=C(Nc1ccc(Cl)cc1C(F)(F)F)C(Sc1cccc[n+]1[O-])c1ccccc1 (centres undefined)
output: f

input: Then this molecule: C=C1CCC2[C@](C)(CO)[C@H](O)CC[C@@]2(C)[C@@H]1C/C=C1/C(=O)OC[C@H]1O (some centres undefined)
output: f

input: Ok, now O=[N+]([O-])c1ccc(O)c2ncccc12
output: f

input: Now give it for CCC(=O)OCCCCCCOc1ccc(C(=O)O)cc1 too.
output: f

input: Moving on to the next molecule: CC(=O)c1cccc(-c2csc3ncnc(Sc4nnnn4C)c23)c1
output: t

input: Same read-out for CC(C)(C)n1nnnc1C(c1ccc2ncccc2c1)N1CCSCC1 (centres undefined) ?
output: f

input: Another molecule to look at: Cn1nnnc1Sc1ncnc2scc(-c3cccc(F)c3)c12
output: t

input: And what about the molecule Cn1nnnc1Sc1ncnc2scc(-c3ccc(S(C)(=O)=O)cc3)c12 ?
output: t
